src = paper doi:10.1101/2024.09.22.614354

- experimental target: T1, wild type Rb pocket domain (Rb^P) (human, UniProt P06400 380-788)
- T1 sequence: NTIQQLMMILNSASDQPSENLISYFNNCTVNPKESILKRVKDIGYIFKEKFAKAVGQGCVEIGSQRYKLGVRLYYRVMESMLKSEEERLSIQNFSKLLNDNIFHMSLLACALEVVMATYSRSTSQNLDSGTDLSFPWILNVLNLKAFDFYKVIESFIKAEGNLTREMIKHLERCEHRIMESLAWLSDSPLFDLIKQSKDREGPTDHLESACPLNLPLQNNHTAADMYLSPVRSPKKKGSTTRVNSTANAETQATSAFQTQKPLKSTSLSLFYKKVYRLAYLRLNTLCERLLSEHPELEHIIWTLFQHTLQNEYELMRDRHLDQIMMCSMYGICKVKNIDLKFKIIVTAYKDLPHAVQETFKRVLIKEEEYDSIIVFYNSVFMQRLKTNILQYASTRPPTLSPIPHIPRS
- method description: fluorescence polarisation
readout label: Kd
Numeric answer plus unit only.

**Query** Consider the binder DLYCYEQLN (not fully specified; TMR fluorescent label (TMR-E7^LxCxE)) [TMR-E7^LxCxE (LxCxE peptide of the E7 oncoprotein from HPV, TMR-labeled)] and give its measured Kd.
**Result** 12 nM
